- assay.system: Androgen receptor (Homo sapiens)
- Sequence (P10275 whole entry): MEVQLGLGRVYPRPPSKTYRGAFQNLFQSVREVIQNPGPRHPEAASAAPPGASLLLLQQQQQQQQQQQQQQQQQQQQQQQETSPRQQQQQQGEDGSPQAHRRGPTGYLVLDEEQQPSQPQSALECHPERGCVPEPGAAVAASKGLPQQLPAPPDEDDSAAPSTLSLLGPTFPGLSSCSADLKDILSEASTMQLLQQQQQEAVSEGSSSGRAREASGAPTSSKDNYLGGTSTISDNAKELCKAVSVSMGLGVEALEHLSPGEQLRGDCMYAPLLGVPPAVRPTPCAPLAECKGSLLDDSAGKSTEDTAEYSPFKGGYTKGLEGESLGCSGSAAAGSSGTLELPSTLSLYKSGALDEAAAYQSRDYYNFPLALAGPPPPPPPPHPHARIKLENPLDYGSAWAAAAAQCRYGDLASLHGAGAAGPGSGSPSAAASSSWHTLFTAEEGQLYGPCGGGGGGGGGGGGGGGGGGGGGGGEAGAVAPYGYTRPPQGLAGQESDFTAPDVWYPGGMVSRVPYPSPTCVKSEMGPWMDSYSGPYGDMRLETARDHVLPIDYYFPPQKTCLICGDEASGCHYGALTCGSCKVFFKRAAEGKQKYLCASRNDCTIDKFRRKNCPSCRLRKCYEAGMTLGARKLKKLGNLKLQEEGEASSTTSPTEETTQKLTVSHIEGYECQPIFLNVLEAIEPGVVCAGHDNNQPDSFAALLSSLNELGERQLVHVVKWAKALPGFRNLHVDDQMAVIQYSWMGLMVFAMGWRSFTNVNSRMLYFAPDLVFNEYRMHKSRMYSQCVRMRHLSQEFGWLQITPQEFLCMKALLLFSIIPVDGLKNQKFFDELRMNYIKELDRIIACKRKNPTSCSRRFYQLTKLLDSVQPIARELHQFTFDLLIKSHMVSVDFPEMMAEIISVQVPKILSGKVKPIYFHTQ
- assay.comment: biochemical
- Description: Displacement of [3H]mibolerone from androgen receptor expressed in CHOK1 cells
assay.readout: IC50 (nM)
Note: unit nM is implicit; provide only the numeric part.

Please review the following examples before continuing.
{"compound": "CNC(=O)CCCCCCCC1C[C@H]2CC(=O)CC[C@]2(C)[C@H]2CC[C@]3(C)[C@@H](O)CC[C@H]3[C@H]12 (stereo partly specified)", "unit.string": "nM", "IC50": 710}
{"compound": "CCCCN(C)C(=O)CCCCCCCC[C@@H]1CC2CC(=O)CC[C@]2(C)[C@H]2CC[C@]3(C)[C@@H](O)CC[C@H]3[C@H]12 (stereo partly specified)", "unit.string": "nM", "IC50": 550}
{"compound": "C[C@]12CC[C@H]3[C@@H]([C@H](CCCCC[S+]([O-])CCCC(F)(F)C(F)(F)F)CC4CC(=O)CC[C@@]43C)[C@@H]1CC[C@@H]2O (stereo partly specified)", "unit.string": "nM", "IC50": 6800}
{"compound": "CCN(CC)C(=O)CCCCCCC1C[C@H]2CC(=O)CC[C@]2(C)[C@H]2CC[C@]3(C)[C@@H](O)CC[C@H]3[C@H]12 (stereo partly specified)", "unit.string": "nM", "IC50": 330}

Now for a further compound.
Qu. Find the recorded IC50 belonging to CN(C)C(=O)CCCCCCCC1C[C@H]2CC(=O)CC[C@]2(C)[C@H]2CC[C@]3(C)[C@@H](O)CC[C@H]3[C@H]12 (stereo partly specified) and report it.
Ans. 260
